# targetOrTestSystem: polypeptide HER2/ECD (human, UniProt P04626 23-646)
# assayDetails: SPR (BIAcore), HER2/ECD immobilized, IgG in flow
Kd reference
parameterMeasured: Kd (pM)

>>> measuredvalue("M64 (antibody) MAELDIQMNQSHKFMSTSVGDRVSITCKASQDVSTAVAWYQQKPGQSPKLLIYWASTRHTGVPGRFTGSGSGADYTLTISSVQAEDLALYYCQQHYSTPYTFGGGTKLEIKSSGGGGSGGGGGGSSRSSLEVQLQQSGAELVKPGASVKLSCTASGFNIKNTYMHWVKQRPEQGLEWIGRIDPANGNTKYDPKLQGKATITADTSSNTAYLHLSSLTSEDTAVYYCVPYYRGAMDYWGQGTSVTVSSESQSFPNVTSAAAGAPVPYPDPLEPRAA")
194
>>> measuredvalue("M61 (antibody) MAELDIKITQSPASLSASVGETVTITCRASENIYSYLAWYQQKQGKSPQLLVYNAKTLAEGVPSRFSGSGSGTQFSLKINSLQPEDFGSYYCQHHYGTPYTFGGGTKLELKSSGGGGSGGGGGGSSRSSLEVQLQQSGAELVKPGASVKMSCKAFGYTFTTYPIEWMKQNHGKSLEWIGNFHPYNDDTKYNEKFKGKAKLTVEKSSSTVYLELSRLTSDDSAVYYCARRNDGYYGAMDYWGQGTSVTVSSAKTTAPSVTSAAAGAPVPYPDPLEPRAA")
591
